Measured values drawn from ChEMBL document CHEMBL1139660 for this set.

Efficacy: recorded values
- systemUnderTest: GABA-A receptor; alpha-1/beta-3/gamma-2 (Homo sapiens) (UniProt P14867+P18507+P28472)
- testDescription: Efficacy against recombinant human GABA-Aalpha1 receptor plus beta-3-gamma-2 expressed in L(tk-) cells by whole cell patch clamp method
- Format: functional, cell-based
propertyName: Efficacy

1) CC(C)(O)c1ccn2c(-c3ccc(F)c(-c4cccnc4)c3)cnc2n1: 0.05
2) CC(C)(O)c1cnn2c(-c3ccc(F)c(-c4ncc(F)cc4F)c3)cnc2n1: 0
3) CC(C)(O)c1cnn2c(-c3ccc(F)c(-c4cccnc4)c3)cnc2n1: 0
4) CC(C)(O)c1ccn2c(-c3ccc(F)c(-c4ccc(F)cn4)c3)cnc2n1: 0.4
5) CC(C)(O)c1cnn2c(-c3ccc(F)c(-c4ncccc4F)c3)cnc2n1: 0.24
6) CC(C)(O)c1cnn2c(-c3ccc(F)c(-c4ccncc4C#N)c3)cnc2n1: 0
7) CC(C)(O)c1cnn2c(-c3ccc(F)c(-c4ncccc4C#N)c3)cnc2n1: 0.01
8) CC(C)(O)c1cnn2c(-c3ccc(F)c(-c4ccc(F)cn4)c3)cnc2n1: 0.15
9) CC(C)(O)c1ccn2c(-c3ccc(F)c(-c4ccncc4)c3)cnc2n1: 0.42
10) CC(C)(O)c1cnn2c(-c3ccc(F)c(-c4ncncc4C#N)c3)cnc2n1: 0.01
11) CC(C)(O)c1cnn2c(-c3ccc(F)c(-c4ccncc4)c3)cnc2n1: 0.06

###

- systemUnderTest: GABA-A receptor; alpha-3/beta-3/gamma-2 (Homo sapiens, UniProt P18507+P28472+P34903)
- Sequence (P18507 whole entry): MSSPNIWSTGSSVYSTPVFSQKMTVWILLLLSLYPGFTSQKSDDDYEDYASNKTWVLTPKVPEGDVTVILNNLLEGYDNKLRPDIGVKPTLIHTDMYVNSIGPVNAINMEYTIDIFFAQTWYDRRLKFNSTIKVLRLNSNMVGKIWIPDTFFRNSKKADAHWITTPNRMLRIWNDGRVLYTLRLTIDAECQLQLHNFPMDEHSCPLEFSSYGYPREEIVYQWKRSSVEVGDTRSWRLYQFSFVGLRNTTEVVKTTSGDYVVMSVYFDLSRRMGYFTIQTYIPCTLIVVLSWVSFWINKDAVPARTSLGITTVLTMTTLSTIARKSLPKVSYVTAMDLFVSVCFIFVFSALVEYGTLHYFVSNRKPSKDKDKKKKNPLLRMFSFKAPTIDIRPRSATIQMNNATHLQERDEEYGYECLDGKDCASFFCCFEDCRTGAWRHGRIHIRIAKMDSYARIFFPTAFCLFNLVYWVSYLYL
- Sequence (P28472 whole entry): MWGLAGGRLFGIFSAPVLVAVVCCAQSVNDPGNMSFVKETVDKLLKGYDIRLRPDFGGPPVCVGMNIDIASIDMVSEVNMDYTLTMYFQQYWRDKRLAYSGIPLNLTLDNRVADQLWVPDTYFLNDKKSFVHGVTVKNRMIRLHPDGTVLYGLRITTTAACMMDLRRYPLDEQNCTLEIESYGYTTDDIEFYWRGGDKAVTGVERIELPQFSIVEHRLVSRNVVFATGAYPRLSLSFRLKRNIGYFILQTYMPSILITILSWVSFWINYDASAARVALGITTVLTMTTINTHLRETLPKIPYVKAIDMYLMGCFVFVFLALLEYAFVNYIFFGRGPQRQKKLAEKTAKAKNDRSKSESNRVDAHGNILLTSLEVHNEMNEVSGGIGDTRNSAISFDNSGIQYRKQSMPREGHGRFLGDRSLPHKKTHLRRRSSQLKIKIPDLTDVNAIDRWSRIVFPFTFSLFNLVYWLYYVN
- Sequence (P34903 whole entry): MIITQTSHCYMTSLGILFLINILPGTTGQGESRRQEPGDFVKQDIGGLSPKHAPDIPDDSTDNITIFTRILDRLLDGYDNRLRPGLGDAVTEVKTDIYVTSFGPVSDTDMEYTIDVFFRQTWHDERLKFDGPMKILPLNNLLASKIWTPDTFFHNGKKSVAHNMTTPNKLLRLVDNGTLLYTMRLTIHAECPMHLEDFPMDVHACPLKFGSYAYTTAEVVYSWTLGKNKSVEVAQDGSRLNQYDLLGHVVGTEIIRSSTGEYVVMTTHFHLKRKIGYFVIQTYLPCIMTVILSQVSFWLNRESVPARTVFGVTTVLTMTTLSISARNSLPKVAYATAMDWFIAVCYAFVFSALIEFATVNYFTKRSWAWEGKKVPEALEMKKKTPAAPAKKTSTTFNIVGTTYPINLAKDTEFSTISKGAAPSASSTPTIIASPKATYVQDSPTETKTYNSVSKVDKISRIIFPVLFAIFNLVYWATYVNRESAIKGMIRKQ
- testDescription: Displacement of [3H]Ro 15-1788 from recombinant human GABA-Aalpha3 receptor plus beta-3-gamma-2 expressed in L(tk-) cells
pKi: −log10 of the molar value.
pKi: recorded values
propertyName: pKi

1) CC(C)(O)c1ccn2c(-c3ccc(F)c(-c4ccncc4)c3)cnc2n1: 8.65
2) CC(C)(O)c1ccn2c(-c3ccc(F)c(-c4ncccc4F)c3)cnc2n1: 9.38
3) CC(C)(O)c1cnn2c(-c3ccc(F)c(-c4ncccc4C#N)c3)cnc2n1: 8.02
4) CC(C)(O)c1ccn2c(-c3ccc(F)c(-c4ccncc4C#N)c3)cnc2n1: 9.55
5) CC(C)(O)c1cnn2c(-c3ccc(F)c(-c4ncc(F)cc4F)c3)cnc2n1: 8.35
6) CC(C)(O)c1cnn2c(-c3ccc(F)c(-c4ccncc4C#N)c3)cnc2n1: 8.97
7) CC(C)(O)c1cnn2c(-c3ccc(F)c(-c4ncncc4C#N)c3)cnc2n1: 8.48
8) CC(C)(O)c1ccn2c(-c3ccc(F)c(-c4ncccc4C#N)c3)cnc2n1: 8.44
9) CC(C)(O)c1cnn2c(-c3ccc(F)c(-c4cccnc4)c3)cnc2n1: 8.79
10) CC(C)(O)c1ccn2c(-c3ccc(F)c(-c4ncc(F)cc4F)c3)cnc2n1: 8.42
11) CC(C)(O)c1ccn2c(-c3ccc(F)c(-c4ccc(F)cn4)c3)cnc2n1: 8.71
12) CC(C)(O)c1cnn2c(-c3ccc(F)c(-c4ncccc4F)c3)cnc2n1: 8.47
13) CC(C)(O)c1cnn2c(-c3ccc(F)c(-c4ccncc4)c3)cnc2n1: 9.28
14) CC(C)(O)c1cnn2c(-c3ccc(F)c(-c4ccc(F)cn4)c3)cnc2n1: 8.56

###

Vd: recorded values
- testDescription: Volume of distribution in Sprague-Dawley rat at 1 mg/kg, iv or 1 mg/kg, po
- Assay type: ADME, organism-based
- testConditions: in vivo, read-out: Vdss
propertyName: Vd (L/kg)

1) CC(C)(O)c1ccn2c(-c3ccc(F)c(-c4cccnc4)c3)cnc2n1: 1
2) CC(C)(O)c1cnn2c(-c3ccc(F)c(-c4ncccc4C#N)c3)cnc2n1: 1.7
3) CC(C)(O)c1cnn2c(-c3ccc(F)c(-c4ncc(F)cc4F)c3)cnc2n1: 2.2
